# Tested on: A549
# Assay Comment: NCI tumour cell line growth inhibition, 48 h
Calls of active or inactive are those of the source. Rule as the data show it: active = GI50 up to about 1.1 µM and inactive = higher.
The categories you may choose from are class 1 = active, class 0 = inactive

[
  {
    "Compound": "O=c1[nH]c(Nc2nc3ccccc3[nH]2)nc(O)c1-c1ccccc1",
    "Category": "class 0"
  },
  {
    "Compound": "COc1cc(/C=C/c2csnn2)cc(OC)c1OC",
    "Category": "class 0"
  },
  {
    "Compound": "COC(=O)C(/C(=N/NC(N)=O)C(=O)Nc1ccc(C)cc1)c1nc2ccc([N+](=O)[O-])cc2nc1O (stereo not drawn)",
    "Category": "class 0"
  }
]

We next turn to a different compound, shown below.
Query: Dear colleague, could you share the recorded outcome for CC[C@H]1CNC(=O)CC1CC(=O)OC (stereo partly drawn) when you have a moment?
Result: class 0

###

# Test system: SR
# Assay Comment: NCI tumour cell line growth inhibition, 48 h
Activity calls are given as the source filed them. Cut-off read from the data, not from the text of the source: active = GI50 up to about 1.1 µM and inactive = higher.
The categories you may choose from are Yes (active), No (inactive)

Sample answers from the record:
[
  {
    "Molecule": "Cc1ccc([N+](=O)[O-])cc1S(=O)(=O)Nc1ccc(C2=NNC(c3ccccc3O)C2)cc1 (stereo not given)",
    "Category": "No"
  },
  {
    "Molecule": "O=c1[nH]c(=O)n(COCCO)cc1-c1ccccc1",
    "Category": "No"
  },
  {
    "Molecule": "O=C(O)c1nn(-c2ccc(Cl)cc2)c2c1C(=O)c1ccccc1C2=O",
    "Category": "No"
  }
]

Query: Dear colleague, could you share the recorded outcome for COc1cccc2c1C(=O)c1c(O)c3c(c(O)c1C2=O)C[C@@](O)(C(=O)CO)CC3OC1CC(N)C(OC2CCCCO2)C(C)O1 (stereo not given in full) when you have a moment?
Result: Yes

Query: Dear colleague, could you share the recorded outcome for CCOC(=O)C1=C(Nc2ccccc2)SCC1=O when you have a moment?
Result: No

###

# Tested on: MOLT-4
# Assay Comment: NCI tumour cell line growth inhibition, 48 h
Activity calls are given as the source filed them. Rule as the data show it: active = GI50 up to about 1.1 µM and inactive = higher.
The categories you may choose from are active, inactive

Sample answers from the record:
[
  {
    "Compound": "Cn1c(=O)c2nc(CS(=O)(=O)Cc3nc4c(=O)n(C)c(=O)n(C)c4[nH]3)[nH]c2n(C)c1=O",
    "Tgt": "MOLT-4",
    "Category": "inactive"
  },
  {
    "Compound": "O=C(CCc1cccc(O)c1)NCCc1ccc(O)cc1",
    "Tgt": "MOLT-4",
    "Category": "inactive"
  },
  {
    "Compound": "CCOC(=O)CNC(=O)OCc1ccccc1",
    "Tgt": "MOLT-4",
    "Category": "inactive"
  },
  {
    "Compound": "CN(C)c1ccc2nc(CC(O)(C(F)(F)F)C(F)(F)F)ccc2c1",
    "Tgt": "MOLT-4",
    "Category": "inactive"
  },
  {
    "Compound": "Cc1cc2c(C)n(Cc3ccccc3Cl)nc2c(C(=O)O)c1C",
    "Tgt": "MOLT-4",
    "Category": "inactive"
  },
  {
    "Compound": "CC1(C)[C@@H]2C[C@H]1C(Cc1ccc(C[C@H]3c4cc(-c5ccccn5)ncc4[C@H]4C[C@@H]3C4(C)C)cc1)c1cc(-c3ccccn3)ncc12 (stereo not given in full)",
    "Tgt": "MOLT-4",
    "Category": "active"
  },
  {
    "Compound": "O=C(O)c1ccccc1/C=N\\N=C1NCCN1",
    "Tgt": "MOLT-4",
    "Category": "inactive"
  },
  {
    "Compound": "COC[C@H]1C(=O)NCC(=O)N2N=CCC[C@H]2C(=O)N(O)[C@H](C)C(=O)O[C@@H](C(C)C)[C@H](NC(=O)[C@@](C)(O)[C@]2(O)CC[C@@H](CC(C)C)[C@H](C)O2)C(=O)N2NCCC[C@@H]2C(=O)N1O",
    "Tgt": "MOLT-4",
    "Category": "active"
  },
  {
    "Compound": "O=C(NC1(C(=O)O)CCCC1)c1ccccc1",
    "Tgt": "MOLT-4",
    "Category": "inactive"
  }
]

We next turn to a different compound, shown below.
Query: Dear colleague, could you share the recorded outcome for CC(=O)CC(=O)/C=C/c1cccs1 when you have a moment?
Result: inactive
